Provenance of the data: patent US20170152258A9

For reference, IC50 measured on Syk kinase (Homo sapiens, UniProt P43405):

MOLECULE: CC(=O)N1CCC(c2ccc(-c3cc4nccnc4c(O[C@@H]4CCCOC4)n3)cc2)CC1 [Compound 191]
IC50: 115 nM
--
MOLECULE: CC(C)(O)c1ccc(-c2cc3nccnc3c(OC[C@@H]3CN(C(N)=O)CCO3)n2)cc1 [Compound 266]
IC50: 44 nM
--
MOLECULE: CC(=O)N1CCO[C@H](COc2nc(-c3ccc4c(c3)CCCN4C)cc3nccnc23)C1 [Compound 185]
IC50: 40 nM
--
MOLECULE: COC1CCN(c2ccc(-c3cc4nccnc4c(OC[C@@H]4CN(S(C)(=O)=O)CCO4)n3)cc2)CC1 [Compound 31]
IC50: 17 nM
--
MOLECULE: CN(C)c1ccc(-c2cc3nccnc3c(OC[C@@H]3CNC(=O)C3)n2)cc1 [Compound 206]
IC50: 72 nM
--
MOLECULE: CS(=O)(=O)N1CCO[C@H](COc2nc(-c3ccc4c(c3)OCCO4)cc3nccnc23)C1 [Compound 109]
IC50: 97 nM
--
MOLECULE: CN(C)c1ccc(-c2cc3nccnc3c(OC[C@@H]3CN(C(=O)C4CCCC4)CCO3)n2)cc1 [Compound 98]
IC50: 55 nM
--
MOLECULE: CN1CCc2cc(-c3cc4nccnc4c(OC[C@@H]4CN(S(C)(=O)=O)CCO4)n3)ccc21 [Compound 214]
IC50: 16 nM
--
MOLECULE: CS(=O)(=O)N1CCN(c2ccc(-c3cc4nccnc4c(O[C@@H]4CCCOC4)n3)cc2)CC1 [Compound 179]
IC50: 190 nM
--
MOLECULE: CC(Oc1nc(-c2ccc(N(C)C)cc2)cc2nccnc12)C1CN(C(N)=O)CCO1 (stereo not shown) [Compound 238]
IC50: 275 nM
--
MOLECULE: CNc1ccc(-c2cc3nccnc3c(O[C@@H]3CCOC3)n2)cc1 [Compound 133]
IC50: 45 nM
--
MOLECULE: CNC(=O)N1CCOC(C(C)Oc2nc(-c3ccc(N(C)C)cc3)cc3nccnc23)C1 (stereo not shown) [Compound 235]
IC50: 212 nM
--
MOLECULE: CCN(CC)c1ccc(-c2cc3nccnc3c(OC[C@@H]3CN(S(C)(=O)=O)CCO3)n2)cc1 [Compound 119]
IC50: 16 nM
--
MOLECULE: CNc1ccc(-c2cc3nccnc3c(OC[C@@H]3CN(S(C)(=O)=O)CCO3)n2)cc1 [Compound 36]
IC50: 55 nM
--
MOLECULE: CN1C[C@@H](COc2nc(-c3ccc(C(C)(C)O)cc3)cc3nccnc23)OCC1=O [Compound 310]
IC50: 588 nM
--
MOLECULE: Cn1ccc2ccc(-c3cc4nccnc4c(OC[C@@H]4CN(S(C)(=O)=O)CCO4)n3)cc21 [Compound 120]
IC50: 61 nM
--
MOLECULE: CN(C)c1ccc(-c2cc3nccnc3c(OC[C@@H]3CN(C(=O)c4cccnc4)CCO3)n2)cc1 [Compound 78]
IC50: 61 nM
--
MOLECULE: CC(C)(C(=O)O)c1ccc(-c2cc3nccnc3c(OC[C@@H]3CN(S(C)(=O)=O)CCO3)n2)cc1 [Compound 318]
IC50: 17 nM
--
MOLECULE: CS(=O)(=O)N1CCO[C@H](COc2nc(-c3ccc(C4(O)CCOCC4)cc3)cc3nccnc23)C1 [Compound 314]
IC50: 43 nM
--
MOLECULE: CC(=O)N1CCO[C@H](COc2nc(-c3ccc(C(C)(C)O)cc3)cc3nccnc23)C1 [Compound 265]
IC50: 88 nM
--
MOLECULE: CC(C)C(=O)N1CCO[C@H](COc2nc(-c3ccc(N(C)C)cc3)cc3nccnc23)C1 [Compound 68]
IC50: 63 nM
--
MOLECULE: CS(=O)(=O)N1CCO[C@H](COc2nc(-c3ccc(N4CCCCC4)cc3)cc3nccnc23)C1 [Compound 21]
IC50: 30 nM
--
MOLECULE: CN(C)c1ccc(-c2cc3nccnc3c(OC[C@@H]3CN(C(=O)C(F)F)CCO3)n2)cc1 [Compound 100]
IC50: 31 nM
--
MOLECULE: CCC(=O)N1CCO[C@H](COc2nc(-c3ccc(N(C)C)c(C)c3)cc3nccnc23)C1 [Compound 202]
IC50: 26 nM
--
MOLECULE: CN(C)c1ccc(-c2cc3nccnc3c(OC[C@@H]3CN(C(=O)CCCC#N)CCO3)n2)cc1 [Compound 81]
IC50: 166 nM
--
MOLECULE: CC(=O)NC(C)(C)c1ccc(-c2cc3nccnc3c(OC[C@@H]3CN(S(C)(=O)=O)CCO3)n2)cc1 [Compound 313]
IC50: 104 nM
--
MOLECULE: CN(C)c1ccc(-c2cc3nccnc3c(OC[C@@H]3CN(C(=O)c4cnn(C)c4)CCO3)n2)cc1 [Compound 87]
IC50: 60 nM
--
MOLECULE: CNC(=O)COc1ccc(-c2cc3nccnc3c(OC[C@@H]3CN(S(C)(=O)=O)CCO3)n2)cc1 [Compound 129]
IC50: 50 nM
--
MOLECULE: CC1(C)OCCc2cc(-c3cc4nccnc4c(OC[C@@H]4CN(C(N)=O)CCO4)n3)ccc21 [Compound 301]
IC50: 24 nM
--
MOLECULE: N#CC1(c2ccc(-c3cc4nccnc4c(OC[C@@H]4CN(C(N)=O)CCO4)n3)cc2)CCC1 [Compound 290]
IC50: 50 nM
--
MOLECULE: CN(C)c1ccc(-c2cc3nccnc3c(OC[C@@H]3CN(C(=O)CCC#N)CCO3)n2)cc1 [Compound 77]
IC50: 85 nM

----------
For reference, log10 of IC50 measured on Syk kinase (Homo sapiens, UniProt P43405):
MEASURED PROPERTY: log10 of IC50 (log10 of the value in µM)

MOLECULE: CC(=O)N1CCO[C@H](COc2nc(-c3ccc(N4CCN(CCO)CC4)cc3)cc3nccnc23)C1
ASSAY SYSTEM: Syk kinase (Homo sapiens, UniProt P43405)
VALUE REPORTED: -1.06
//
MOLECULE: CN(C)S(=O)(=O)N1CCO[C@H](COc2nc(-c3ccc(N4CCOCC4)cc3)cc3nccnc23)C1
ASSAY SYSTEM: Syk kinase (Homo sapiens, UniProt P43405)
VALUE REPORTED: -0.92
//
MOLECULE: CC(=O)N1CCO[C@H](COc2nc(-c3ccc4c(c3)CC(=O)N4C)cc3nccnc23)C1
ASSAY SYSTEM: Syk kinase (Homo sapiens, UniProt P43405)
VALUE REPORTED: -0.34
//
MOLECULE: CC(C)C(O)c1ccc(-c2cc3nccnc3c(OC[C@@H]3CN(S(C)(=O)=O)CCO3)n2)cc1 (stereo partly shown)
ASSAY SYSTEM: Syk kinase (Homo sapiens, UniProt P43405)
VALUE REPORTED: -0.98
//
MOLECULE: CNS(=O)(=O)N1CCO[C@H](COc2nc(-c3ccc(N(C)C)cc3)cc3nccnc23)C1
ASSAY SYSTEM: Syk kinase (Homo sapiens, UniProt P43405)
VALUE REPORTED: -1.24
//
MOLECULE: CN(C)c1ccc(-c2cc3nccnc3c(OCC3CCCO3)n2)cc1 (stereo not shown)
ASSAY SYSTEM: Syk kinase (Homo sapiens, UniProt P43405)
VALUE REPORTED: -0.68
//
MOLECULE: CNc1ccc(-c2cc3nccnc3c(OC[C@@H]3CN(C(=O)[C@H]4CCOC4)CCO3)n2)cc1
ASSAY SYSTEM: Syk kinase (Homo sapiens, UniProt P43405)
VALUE REPORTED: -1.19
//
MOLECULE: NC(=O)c1ccc(Oc2nc(-c3ccc(N4CCOCC4)cc3)cc3nccnc23)cc1
ASSAY SYSTEM: Syk kinase (Homo sapiens, UniProt P43405)
VALUE REPORTED: -0.34
//
MOLECULE: NS(=O)(=O)N1CCO[C@H](COc2nc(-c3ccc(N4CCCCC4)cc3)cc3nccnc23)C1
ASSAY SYSTEM: Syk kinase (Homo sapiens, UniProt P43405)
VALUE REPORTED: -1.40
//
MOLECULE: CS(=O)(=O)N1CCO[C@H](COc2nc(-c3ccc(CN4CCOCC4)cc3)cc3nccnc23)C1
ASSAY SYSTEM: Syk kinase (Homo sapiens, UniProt P43405)
VALUE REPORTED: -1.09
//
MOLECULE: CC1(c2ccc(-c3cc4nccnc4c(OC[C@@H]4CN(S(C)(=O)=O)CCO4)n3)cc2)COC1
ASSAY SYSTEM: Syk kinase (Homo sapiens, UniProt P43405)
VALUE REPORTED: -1.48
//
MOLECULE: CS(=O)(=O)N1CCC(c2ccc(-c3cc4nccnc4c(O[C@@H]4CCOC4)n3)cc2)CC1
ASSAY SYSTEM: Syk kinase (Homo sapiens, UniProt P43405)
VALUE REPORTED: -1.48
//
MOLECULE: CC(=O)N1CCO[C@H](COc2nc(-c3ccc(C(C)(C)CN)cc3)cc3nccnc23)C1
ASSAY SYSTEM: Syk kinase (Homo sapiens, UniProt P43405)
VALUE REPORTED: -0.32
//
MOLECULE: CS(=O)(=O)N1CCO[C@H](COc2nc(-c3ccc(C4(C#N)CCC4)cc3)cc3nccnc23)C1
ASSAY SYSTEM: Syk kinase (Homo sapiens, UniProt P43405)
VALUE REPORTED: -1.59
//
MOLECULE: CN1CCOC(COc2nc(-c3ccc(C4CCN(S(C)(=O)=O)CC4)cc3)cc3nccnc23)C1=O (stereo not shown)
ASSAY SYSTEM: Syk kinase (Homo sapiens, UniProt P43405)
VALUE REPORTED: -0.99
//
MOLECULE: COc1ccc(-c2cc3nccnc3c(OC[C@@H]3CN(S(C)(=O)=O)CCO3)n2)cc1F
ASSAY SYSTEM: Syk kinase (Homo sapiens, UniProt P43405)
VALUE REPORTED: -0.88
